- MEASURED ON: human glucagon receptor (human) (UniProt P47871)
- Sequence (P47871 26-477): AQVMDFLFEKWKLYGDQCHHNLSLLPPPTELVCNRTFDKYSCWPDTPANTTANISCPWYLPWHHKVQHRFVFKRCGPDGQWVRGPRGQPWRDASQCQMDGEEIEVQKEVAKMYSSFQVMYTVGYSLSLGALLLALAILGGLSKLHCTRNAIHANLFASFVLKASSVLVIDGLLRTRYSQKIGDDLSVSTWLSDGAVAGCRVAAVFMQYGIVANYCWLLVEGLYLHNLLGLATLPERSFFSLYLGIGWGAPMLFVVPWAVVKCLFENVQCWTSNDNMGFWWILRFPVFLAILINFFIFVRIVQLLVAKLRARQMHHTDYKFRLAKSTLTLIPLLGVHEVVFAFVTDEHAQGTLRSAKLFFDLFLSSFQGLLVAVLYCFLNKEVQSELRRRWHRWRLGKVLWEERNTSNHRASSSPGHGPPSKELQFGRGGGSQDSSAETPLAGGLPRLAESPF
- TEST SUMMARY: cell-based or functional assay
Listing: log10 cAMP Rel EC50 (in the presence of 1% HSA) of selected binders
Kindly note that the scale is log10 and the underlying cAMP Rel EC50 (in the presence of 1% HSA) is in nM.

Here's what some known entries look like.
Recorded log10 cAMP Rel EC50 (in the presence of 1% HSA) for YXQGTXTSDXSIXLDKKAQXAFIEYLEEGGPSSGAPPPSGEGE (Lys acylated with (γGlu)2-C18 diacid; non-natural residues; C-amide; synthetic construct; SITE 2: note = 2-Aminoisobutyric Acid; SITE 6: note = alpha-methyl-2-fluoro-L-phenylalanine; SITE 10: note = 3-(4-Pyridyl)-L-alanine; SITE 13: note = alpha-methyl-leucine; SITE 17: note = Lysine is chemically modified through conjugation of the epsilon-amino group of the Lysine) [Example 623] , please?
2.92

Quick one: log10 cAMP Rel EC50 (in the presence of 1% HSA) of YXQGTXTSDXSILLDKKAQXAFIEYLEEGGPSSGAPPPSGTEE (acylated Lys (γGlu)2-C18 diacid; non-natural residues; C-terminal amide; synthetic construct; SITE 2: note = 2-Aminoisobutyric Acid; SITE 6: note = alpha-methyl-2-fluoro-L-phenylalanine; SITE 10: note = 3-(4-Pyridyl)-L-alanine; SITE 17: note = Lysine is chemically modified through conjugation of the epsilon-amino group of the Lysine side chain with (gamma-Glu)2-CO-(CH2)1) [Example 609] ?
2.81

Which value of log10 cAMP Rel EC50 (in the presence of 1% HSA) has been reported for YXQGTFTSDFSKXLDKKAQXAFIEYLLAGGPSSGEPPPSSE (synthetic construct; SITE 2: note = 2-Aminoisobutyric Acid; SITE 13: note = alpha-methyl-leucine; SITE 17: note = Lysine is chemically modified through conjugation of the epsilon-amino group of the Lysine side chain with (2-[2-(2-Amino-ethoxy)-ethoxy]-acetyl)2-(gamma-Glu)-CO-(CH2 )18-CO2H; SITE 20:) [Example 5] in the records?
3.43

# log10 cAMP Rel EC50 (in the presence of 1% HSA) lookup, item YXQGTXTSDXSIXLDKKAQXXFIEYLEEGGPSSGEPPPSGSEE (non-natural residues; C18 diacid-(γGlu)2 on Lys; C-terminal amide; synthetic construct; SITE 2: note = 2-Aminoisobutyric Acid; SITE 6: note = alpha-methyl-2-fluoro-L-phenylalanine; SITE 10: note = 3-(4-Pyridyl)-L-alanine; SITE 13: note = alpha-methyl-leucine; SITE 17: note = Lysine is chemically modified through conjugation of the epsilon-amino group of the Lysine) [Example 635]
2.88

Consider the additional binder presented here.
Would you kindly share the measured log10 cAMP Rel EC50 (in the presence of 1% HSA) for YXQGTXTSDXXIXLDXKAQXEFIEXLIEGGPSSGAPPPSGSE (Aib, alpha-methyl residues, 4Pal, Orn, lipidated Lys, amide; synthetic construct; SITE 2: note = 2-Aminoisobutyric Acid; SITE 6: note = alpha-methyl-L-phenylalanine; SITE 10: note = 3-(4-Pyridyl)-L-alanine; SITE 11: note = alpha-methyl-L-serine; SITE 13: note = alpha-methyl-leucine; SITE 16: note = L-ornithine; SITE 17: note = Lysine is chemically modified th) [Example 1166] ?
2.63

Source listed as patent US20240270821A1.
